measuredTarget: FimH (Escherichia coli, UniProt Q1R2J4);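 also: concentration in nM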
Construct: endogenous in cells; host or cells: E. coli UTI89 whole bacteria, agglutinating guinea pig red blood cells
Sequence (P08190 24-167, other chains not shown): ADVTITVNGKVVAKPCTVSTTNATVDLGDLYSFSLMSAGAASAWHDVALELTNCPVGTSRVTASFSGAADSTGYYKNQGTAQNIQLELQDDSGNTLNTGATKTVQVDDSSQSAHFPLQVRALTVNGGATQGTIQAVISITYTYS
Assay type: cell-based
assaySetup: concentration reducing bacterial agglutination of guinea pig red blood cells by greater than 90%; UTI89 bacteria

| smilesNotation | HAI titer EC > 90 |
| --- | --- |
| COc1cc(-c2ccc([C@@H](O)[C@H]3O[C@H](CO)[C@@H](O)[C@H](O)[C@@H]3O)c(C)c2)cc(F)c1F | “++++” (<50 “++++”) |
| Cc1cc(-c2cc(F)c(C(F)(F)F)c(F)c2)ccc1[C@@H](O)[C@H]1O[C@H](CO)[C@@H](O)[C@H](O)[C@@H]1O | “++++” (<50 “++++”) |
| Cc1cc(-c2ccc(Cl)c(C(F)(F)F)c2)ccc1[C@@H](O)[C@H]1O[C@H](CO)[C@@H](O)[C@H](O)[C@@H]1O | “++++” (<50 “++++”) |

###

measuredTarget: FimH (Escherichia coli, UniProt Q1R2J4);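 also: concentration in nM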
Construct: endogenous in cells; host or cells: E. coli UTI89 whole bacteria, agglutinating guinea pig red blood cells
Assay type: cell-based
assaySetup: concentration reducing bacterial agglutination of guinea pig red blood cells by greater than 90%; UTI89 bacteria
measuredProperty: HAI titer EC > 90

Answered examples (5):
| molecule | measuredProperty | result |
| --- | --- | --- |
| Cc1cc(-c2ccc(C(F)(F)F)c(C(F)(F)F)c2)ccc1[C@@H](O)[C@H]1O[C@H](CO)[C@@H](O)[C@H](O)[C@@H]1O [Example 67] | HAI titer EC > 90 | “++++” (<50 “++++”) |
| Cc1cc(-c2cc(F)c(C(C)O)c(F)c2)ccc1C(O)C1OC(CO)C(O)C(O)C1O (mixture of isomers) [Example 95] | HAI titer EC > 90 | “++++” (<50 “++++”) |
| Cc1cc(-c2ccc([C@@H](O)[C@H]3O[C@H](CO)[C@@H](O)[C@H](O)[C@@H]3O)c(C)c2)cc(C(F)(F)F)c1 [Example 68] | HAI titer EC > 90 | “++++” (<50 “++++”) |
| COc1cc(F)c(-c2ccc([C@@H](O)[C@H]3O[C@H](CO)[C@@H](O)[C@H](O)[C@@H]3O)c(C)c2)cc1F [Example 82] | HAI titer EC > 90 | “++++” (<50 “++++”) |
| COc1cc(-c2ccc([C@@H](O)[C@H]3O[C@H](CO)[C@@H](O)[C@H](O)[C@@H]3O)c(C)c2)ccc1F [Example 27] | HAI titer EC > 90 | “+++” (50-200 “+++”) |

Prompt: Which HAI titer EC > 90 value is on record for Cc1cc(-c2ccc(Cl)cc2)ccc1[C@@H](O)[C@H]1O[C@H](CO)[C@@H](O)[C@H](O)[C@@H]1O [Example 99] ?
Completion: “+++” (50-200 “+++”)

###

measuredTarget: FimH (Escherichia coli);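 also: concentration in nM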
Construct: endogenous in cells; host or cells: E. coli UTI89 whole bacteria, agglutinating guinea pig red blood cells
Format: cell-based
assaySetup: concentration reducing bacterial agglutination of guinea pig red blood cells by greater than 90%; UTI89 bacteria
measuredProperty: HAI titer EC > 90

Answered examples (5):
| compound | measuredTarget | HAI titer EC > 90 |
| --- | --- | --- |
| Cc1cc(-c2cc(F)cc(F)c2F)ccc1[C@@H](O)[C@H]1O[C@H](CO)[C@@H](O)[C@H](O)[C@@H]1O [Example 70] | FimH (Escherichia coli) | “++++” (<50 “++++”) |
| OC[C@H]1O[C@H]([C@H](O)c2c(F)cc(-c3cc(F)cc(F)c3)cc2Cl)[C@@H](O)[C@@H](O)[C@@H]1O [Example 52] | FimH (Escherichia coli) | “+++” (50-200 “+++”) |
| COc1cc(OC)cc(-c2ccc([C@@H](O)[C@H]3O[C@H](CO)[C@@H](O)[C@H](O)[C@@H]3O)c(C)c2)c1 [Example 33] | FimH (Escherichia coli) | “++++” (<50 “++++”) |
| Cc1cc(-c2cc(Cl)ccc2F)ccc1[C@@H](O)[C@H]1O[C@H](CO)[C@@H](O)[C@H](O)[C@@H]1O [Example 44] | FimH (Escherichia coli) | “+++” (50-200 “+++”) |
| Cc1cc(-c2ccc(F)c(F)c2)ccc1[C@@H](O)[C@H]1O[C@H](CO)[C@@H](O)[C@H](O)[C@@H]1O [Example 23] | FimH (Escherichia coli) | “+++” (50-200 “+++”) |

Prompt: Which HAI titer EC > 90 value is on record for Cc1cc(-c2cc(F)c(C3CC3)c(F)c2)ccc1[C@@H](O)[C@H]1O[C@H](CO)[C@@H](O)[C@H](O)[C@@H]1O [Example 53] ?
Completion: “++++” (<50 “++++”)

Prompt: Similarly, OC[C@H]1O[C@H]([C@H](O)c2ccc(-c3cc(F)cc(C(F)(F)F)c3)cc2C(F)(F)F)[C@@H](O)[C@@H](O)[C@@H]1O [Example 59] ?
Completion: “++++” (<50 “++++”)

Prompt: Similarly, COc1cc(-c2ccc([C@@H](O)[C@H]3O[C@H](CO)[C@@H](O)[C@H](O)[C@@H]3O)c(C)c2)cc(F)c1C [Example 63] ?
Completion: “++++” (<50 “++++”)

Prompt: Similarly, Cc1cc(-c2cc(F)cc(OC(F)(F)F)c2)ccc1[C@@H](O)[C@H]1O[C@H](CO)[C@@H](O)[C@H](O)[C@@H]1O [Example 36] ?
Completion: “++++” (<50 “++++”)

Prompt: Similarly, Cc1cc(-c2cccc(F)c2)ccc1[C@@H](O)[C@H]1O[C@H](CO)[C@@H](O)[C@H](O)[C@@H]1O [Example 77] ?
Completion: “+++” (50-200 “+++”)

Prompt: Similarly, COc1cc(-c2ccc([C@@H](O)[C@H]3O[C@H](CO)[C@@H](O)[C@H](O)[C@@H]3O)c(C)c2)ccc1C(F)(F)F [Example 76] ?
Completion: “++++” (<50 “++++”)
